System: Escherichia coli TOP10;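 also: peptides expressed intracellularly from a pBAD plasmid library in pooled LB shake-flask culture, induced with 0.3% L-arabinose, DNA abundance read by NGS, three biological replicates, DESeq2 with apeglm shrinkage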
Assay: shrunken log2 fold change of peptide-encoding DNA abundance (4.5 h post-induction vs induction); higher = less antimicrobial activity (less host growth inhibition)
Conditions: time post-induction: 4.5 h; library: site-saturation at positions 5, 18, 19, 20
Label yes (1) when shrunken log2 fold change is at or above -0.02; anything below gets no (0).

# example entries with known answers
{"sequence.content": "RRIRWRPPRLPRPRPRPAFRPRP", "label.value": "yes (1)"}
{"sequence.content": "RRIRMRPPRLPRPRPRPDKIPRP", "label.value": "yes (1)"}
{"sequence.content": "RRIRIRPPRLPRPRPRPPCTPRP", "label.value": "no (0)"}

Is reported shrunken log2 fold change greater than or equal to -0.02 here: `RRIRFRPPRLPRPRPRPIYQPRP`
no (0)

Moving on to the next sequence: `RRIRARPPRLPRPRPRPSDGPRP`
yes (1)

Moving on to the next sequence: `RRIRLRPPRLPRPRPRPQDSPRP`
no (0)

Moving on to the next sequence: `RRIRARPPRLPRPRPRPNTSPRP`
yes (1)

Moving on to the next sequence: `RRIRTRPPRLPRPRPRPCGPPRP`
no (0)

These data points were gathered from the supplement of paper PMC9112550.
